Test system: PfHDP1 homeodomain (GST-tagged)
ASSAY: gcPBM binding intensity (ln(normalized median fluorescence intensity)); higher = stronger DNA binding
The full ranking holds about 25,000 sequences; the median of “ln(normalized median fluorescence intensity)” is about 6.7, and the highest 2% start at about 10. Only a selection was taken, and the highest values are over-represented in it overall.
Criterion: gcPBM binding intensity (ln) meeting or surpassing 9. Met: Met. Not met: Not met.

Worked set:
Task item: Please indicate if the recorded gcPBM binding intensity (ln) for ATATATATAACAAAAGTGCATTAAGGGGATGCTATA meets or exceeds 9.
Reply: Not met

Task item: Is it the case that ATAATACAAAATACATGTACAAATATTTTTCATATT [XGTACX_site1721] has gcPBM binding intensity (ln) reaching or exceeding 9?
Reply: Not met

Task item: Please indicate if the recorded gcPBM binding intensity (ln) for ATTAAATGTATGACTTGTACATAAAATAAAAAAAAA [XGTACX_site6555] meets or exceeds 9.
Reply: Not met

Next:
Task item: Say whether TTCTTACACGTTTGCACACTAAAATATATATATATA [CACACA_site434] shows gcPBM binding intensity (ln) of 9 or more.
Reply: Met

Task item: gcPBM binding intensity (ln) >= 9 for GGAAAAAATATATGCACACCCCCCAAAAAAAAAAAA [CACACA_site2222] ?
Reply: Met

Task item: Hi team, for TATATATATATATATGTGCACTGGACATATTTTTAT [GTGCAC_site9721] , is the recorded gcPBM binding intensity (ln) at or above 9?
Reply: Met

Task item: # bool: gcPBM binding intensity (ln) of TTATTTGAACAATATGCACACATTTTATTTATTTTA [CACACA_site3420] >= 9
Reply: Met

Task item: Form field: gcPBM binding intensity (ln) at least 9? Entry: TTGAACCTGATAAATACACACAATATAGATTTTTTT [CACACA_site7091]
Reply: Not met

Task item: Item TTTAGTTTTTATATAGCACACATATTGTGATTATGT [CACACA_site8316] with gcPBM binding intensity (ln) of 9 or above?
Reply: Not met

Task item: Exam item: decide whether the reported gcPBM binding intensity (ln) for ATAATAAAATGGAGAGTGCATACATGTTTATTTTAT is at least 9.
Reply: Not met

Task item: Could you verify whether the entry TATTCATGCATATACACACACATATATTTATATTTT [CACACA_site7786] shows gcPBM binding intensity (ln) of no less than 9?
Reply: Not met

Task item: // inclusive: gcPBM binding intensity (ln) at least 9? input: TTTTATTCCTTCTTTGCACACGTTTAAAAATATATA [CACACA_site2899]
Reply: Met

Task item: API: above_or_equal(metric=gcPBM binding intensity (ln), cutoff=9) for item GAATATAATCTGTATTGTACGAAAGTTGAACACTTG [XGTACX_site8895]
Reply: Not met

Task item: Hi, just wondering whether ATATATATATATATATGTACATATTTATATTGTAAA [XGTACX_site8878] shows gcPBM binding intensity (ln) of 9 or higher.
Reply: Met

Task item: Would you say AATAAATACTAAATGGTGCAAAATTTTTTAACACTG shows gcPBM binding intensity (ln) at minimum 9?
Reply: Met

====

Test system: PfHDP1 homeodomain (GST-tagged)
ASSAY: gcPBM binding intensity (ln(normalized median fluorescence intensity)); higher = stronger DNA binding
Over roughly 25,000 sequences, “ln(normalized median fluorescence intensity)” has its median near 6.7; the highest 2% begin near 10. Many of the other results were omitted from the sample, so the highest values are more common in it than they were.
Hi, to clarify the labels: MET covers gcPBM binding intensity (ln) from 7 upward, NOT MET covers anything below 7.

Worked examples, 4 sequences total:
Task item: gcPBM binding intensity (ln) >= 7 for TTTTTTTTTTTTTGCACACACCATATTTATAGAAAT [CACACA_site5772] ?
Reply: MET

Task item: Hi team, for TGTTATTACTTTATATCATCTTAAAATAAGCATATT [CACACA_negctrl_site1501] , is the recorded gcPBM binding intensity (ln) at or above 7?
Reply: NOT MET

Task item: Would you say AATGTCCTTATTTGCACACACACATATAAGAAATTT [CACACA_site3186] shows gcPBM binding intensity (ln) at minimum 7?
Reply: MET

Task item: Say whether TAATATTACATTTATTGTACTTTGTTTTTATTTTAT [XGTACX_site1605] shows gcPBM binding intensity (ln) of 7 or more.
Reply: NOT MET

More entries:
Task item: Exam item: decide whether the reported gcPBM binding intensity (ln) for ATAAACATGGAAATGTATTAAAAGCAAGTATATAAA [XGTACX_negctrl_site516] is at least 7.
Reply: NOT MET

Task item: Given the entry TCTATTATCCTTTGCACACAAAATAAATGAAAAAAT [CACACA_site3029] , answer whether its gcPBM binding intensity (ln) meets or surpasses 7.
Reply: MET

Task item: Is the recorded value of gcPBM binding intensity (ln) equal to or greater than 7 for this sequence? GAGGTACATTAATTAGTGCATTAAAATTTTTATCCT
Reply: MET

Task item: Form field: gcPBM binding intensity (ln) at least 7? Entry: AAAAATAAAATATATACATGCATATACATATTATAT [TGCATGCA_site668]
Reply: NOT MET

Task item: Check the entry GATTAATTTAAAAAATGTACATTTTATTGTATAACC [XGTACX_site5539] : does gcPBM binding intensity (ln) equal or exceed 7?
Reply: NOT MET

Task item: hey, is gcPBM binding intensity (ln) for this one >= 7? AAATATTATAATAATTGTACTATATATACAGTTATT [XGTACX_site1963]
Reply: NOT MET

Task item: API: above_or_equal(metric=gcPBM binding intensity (ln), cutoff=7) for item AATTATATAAGCCACGCATGTGTGCATAAAAATACA [TGCATGCA_site114]
Reply: MET

Task item: Form field: gcPBM binding intensity (ln) at least 7? Entry: TTTTATTTAACTCATAATTTTTTAAAAAACAATTAT [XGTACX_negctrl_site19]
Reply: NOT MET

Task item: Say whether TGTCCTTATTTGCACACACACATATAAGAAATTTAA [CACACA_site7485] shows gcPBM binding intensity (ln) of 7 or more.
Reply: MET

====

Tested on: PfHDP1 homeodomain (GST-tagged)
ASSAY: gcPBM binding intensity (ln(normalized median fluorescence intensity)); higher = stronger DNA binding
In all, about 25,000 sequences were measured (“ln(normalized median fluorescence intensity)”: median about 6.7, highest 2% from about 10 on). This is one part of a sample in which the highest values are shown more often than they occur.
OBSERVED PROPERTY: gcPBM binding intensity (ln)

Task item: Reported gcPBM binding intensity (ln) for TTTAAAACCCTAAAAAAAAAAAAAAAAAAAAAAAAA [CACACA_negctrl_site1212] : what is it?
Reply: 6.26

Task item: # get_value(readout='gcPBM binding intensity (ln)', item= ATAAACAAAAAAAAAAAATATATCAATATATATATA [CACACA_negctrl_site299] )
Reply: 8.7

Task item: Tell me the measured gcPBM binding intensity (ln) of TCTTTTTTAATATAATATATTTTTATTAAGTAAATC [TGCATGCA_negctrl_site408] , please.
Reply: 6.2

Task item: Find the recorded gcPBM binding intensity (ln) belonging to TCATTGAAAATTGTTGCACACATAATAATTAAATAT [CACACA_site8554] and report it.
Reply: 9.46

Task item: Which gcPBM binding intensity (ln) is reported for this sequence? AACGGGGGTAGTTTTATGCACACGTTTATTAATGCT [CACACA_site3173]
Reply: 9.56

More entries:
Task item: State the recorded gcPBM binding intensity (ln) for this entry: AAAAATATAATATAATGTACACAAAAAAAAAAATTC [XGTACX_site3657]
Reply: 6.63

Task item: Endpoint output: gcPBM binding intensity (ln) of ATTGTATGCACGTCTGCACACTTTTTTTTTTTTTTT [CACACA_site2082] . Value?
Reply: 11

Task item: Recorded gcPBM binding intensity (ln) for TTATAATTTTAATGTGCACACAATTAAAATATTATA [CACACA_site5172] , please?
Reply: 10.2

Task item: Need gcPBM binding intensity (ln) of TAACTTAATTTTAATGCACACAATTTATATATATAT [CACACA_site6022] , thanks.
Reply: 10.5

Task item: Suppose we examine the sequence TTTTTTTTTTTTTATTGTACTTATTTTTTTATGTTT [XGTACX_site7725] ; what gcPBM binding intensity (ln) value has been reported?
Reply: 5.96

Task item: For the sequence shown here, ACATTAAGACACATTGCACACGTGCACCCATAGAAA [CACACA_site8029] , give the reported gcPBM binding intensity (ln).
Reply: 10.5

Task item: // returns reported gcPBM binding intensity (ln) for input TATATATATATTTTTTGTACATATTATATAATATAC [XGTACX_site5187]
Reply: 8.42

Task item: Fill in: gcPBM binding intensity (ln) of TAATAATATATTTGTAGTACACAATTTTTTATAACT [XGTACX_site3951] is ___
Reply: 6.34

Task item: Which gcPBM binding intensity (ln) is listed for ATATAGTTGTCATATTGTACACTTTAGGGTTGGTTA [XGTACX_site7339] ?
Reply: 6.64

Task item: Need gcPBM binding intensity (ln), item TATTATAATATATTTGTGCACATAATACCTCCGCTA [GTGCAC_site9570]
Reply: 10.9

Task item: I am curious: what gcPBM binding intensity (ln) value has been reported for GCGTGTGTACAATGAGTGCATATCTAAAGGGAAGAT ?
Reply: 9.43

Task item: Requested read-out: gcPBM binding intensity (ln). Entry: TTGTATTGTATATGCACACATAGAACACTTTTTTTT [CACACA_site4133]
Reply: 8.44
